# METHOD SUMMARY: Peptide stability in simulated intestinal fluid (SIF)
# Format: in vitro ADME
# SETTINGS: pig, 37 °C, porcine pancreatin, pH 6.8, 1 h
*1 amine or outer side, *2 acyl side, *3 side chain or, on linkers, in order; H or OH if unused. Where a SMILES comes first, the peptide text is derived from it. Bridges are numbered along the chain shown (N, C = ends). [ ]: non-standard residue; d: D form. 2Nal = N[C@@H](Cc1ccc2ccccc2c1)C(=O)O; AEF = NCCOc1ccc(C[C@H](N)C(=O)O)cc1; 3Pal = N[C@@H](Cc1cccnc1)C(=O)O; αMeL = CC(C)C[C@](C)(N)C(=O)O; CH2COCH2 = O=C(C[*:1])C[*:2]; 3Amb = NCc1cccc(C(=O)O)c1; Dab = NCC[C@H](N)C(=O)O
MEASURED QUANTITY: remaining at 1 h, 10 µM
Number plus unit, in that order.

Consider the worked cases shown below.
{"COMPOUND": "CC[C@H](C)[C@@H]1NC(=O)[C@@H]2CCCCNC(=O)CC[C@@H](C(=O)N[C@@H](Cc3cnc4ccccc4c3)C(=O)N[C@@H](Cc3cccnc3)C(=O)NC)NC(=O)[C@](C)(CC(C)C)NC(=O)[C@H](Cc3ccc4ccccc4c3)NC(=O)[C@H](Cc3ccc(OCCN)cc3)NC(=O)[C@H](CCC(=O)N2)NC(=O)[C@H](CCC(N)=O)NC(=O)[C@H](Cc2c[nH]c3ccccc23)NC(=O)[C@H](C(C)C)NC1=O [Compound 71]", "remaining at 1 h, 10 µM": "55%"}
{"COMPOUND": "CC[C@H](C)[C@@H]1NC(=O)[C@@H]2CCCCNC(=O)CC[C@@H](C(=O)NCCCCC(=O)N[C@@H](Cc3cccnc3)C(=O)NC)NC(=O)[C@](C)(CC(C)C)NC(=O)[C@H](Cc3ccc4ccccc4c3)NC(=O)[C@H](Cc3ccc(OCCN)cc3)NC(=O)[C@H](CCC(=O)N2)NC(=O)[C@H](CCC(N)=O)NC(=O)[C@H](Cc2c[nH]c3ccccc23)NC(=O)[C@H](C(C)C)NC1=O [Compound 64]", "remaining at 1 h, 10 µM": "93%"}
{"COMPOUND": "CNC(=O)[C@H](Cc1cccnc1)NC(=O)[C@H](CCN)NC(=O)[C@@H]1CCC(=O)NCCCC[C@H]2CC(=O)NCC(=O)N[C@@H](Cc3c[nH]c4ccccc34)C(=O)N[C@@H](CCC(N)=O)C(=O)N[C@@H](CCC(=O)N2)C(=O)N[C@@H](Cc2ccc(OCCN)cc2)C(=O)N[C@@H](Cc2ccc3ccccc3c2)C(=O)N[C@@](C)(CC(C)C)C(=O)N1 [Compound 99]", "remaining at 1 h, 10 µM": "74%"}

remaining at 1 h, 10 µM lookup needed for CC(C)C[C@]1(C)NC(=O)[C@H](Cc2ccc3ccccc3c2)NC(=O)[C@H](Cc2ccc(OCCN)cc2)NC(=O)[C@@H]2CSCC(=O)CSC[C@H](NC(=O)[C@H](CO)NC(=O)Cc3ccc(cc3)CNC(=O)CC[C@@H](C(=O)N[C@@H](CO)C(N)=O)NC1=O)C(=O)N[C@@H](Cc1c[nH]c3ccccc13)C(=O)N[C@@H](CCC(N)=O)C(=O)N2 [Ref 81, reference compound] , thanks.
99%

remaining at 1 h, 10 µM lookup needed for CNC(=O)[C@H](Cc1cccnc1)NC(=O)[C@H](CCN)NC(=O)[C@@H]1CCC(=O)NCCCC[C@@H]2NC(=O)CC[C@H](NC(=O)[C@H](CCC(N)=O)NC(=O)[C@H](Cc3c[nH]c4ccccc34)NC2=O)C(=O)N[C@@H](Cc2ccc(OCCN)cc2)C(=O)N[C@@H](Cc2ccc3ccccc3c2)C(=O)N[C@@](C)(CC(C)C)C(=O)N1 [Compound 43] (KWQE[AEF][2Nal][αMeL]E[Dab][3Pal]-NHMe; lactam 1-8, N-4) , thanks.
91%

remaining at 1 h, 10 µM lookup needed for CC(C)C[C@]1(C)NC(=O)[C@H](Cc2ccc3ccccc3c2)NC(=O)[C@H](Cc2ccc(OCCN)cc2)NC(=O)[C@@H]2CSCC(=O)CSC[C@H](NC(=O)[C@H](CO)NC(=O)c3cccc(c3)CNC(=O)CC[C@@H](C(=O)N[C@H](CCCNC(=N)N)C(N)=O)NC1=O)C(=O)N[C@@H](Cc1c[nH]c3ccccc13)C(=O)N[C@@H](CCC(N)=O)C(=O)N2 [Ref 41, reference compound] ([3Amb]SCWQC[AEF][2Nal][αMeL]E[dR]-NH2; linker 3-6 via CH2COCH2; lactam N-10) , thanks.
83%
